experiment: Viability Counterscreen for CMV-Luciferase Assay of Inhibitors of ATXN expression; also: nearly all actives have a fitted effect of over 55% in size
setup-conditions: HEK-293 CMV-luciferase cells viability, protease fluorescence, 24 h
The campaign covered roughly 2,100 compounds. About 320 (15%) were called active. About 52% were inconclusive and are not listed. Calls follow the shape of the dose curve; as a rule, active = well fitted cell-killing curve with a large enough effect; inconclusive = small, poorly fitted or top-dose-only effect, or effect the other way; inactive = flat fitted curve, though single readings scatter. Some of the results follow.
Can you answer with just one of these options? active, inactive

Inquiry: Query: recorded result category for CN1CCC(N(C)C(=O)c2ccc(Cl)c(S(=O)(=O)N3CCc4ccccc43)c2)CC1 in this test
Reply text: inactive

====

experiment: Viability Counterscreen for CMV-Luciferase Assay of Inhibitors of ATXN expression; also: nearly all actives have a fitted effect of over 55% in size
setup-conditions: HEK-293 CMV-luciferase cells viability, protease fluorescence, 24 h
Among all 2,100 compounds or so, about 320 (15%) were called active. Roughly 52% stayed inconclusive and do not appear here. Calls come from the whole dose curve; as a rule, active = well fitted cell-killing curve with a large enough effect; inconclusive = small, poorly fitted or top-dose-only effect, or effect the other way; inactive = flat fitted curve, though single readings scatter. The list shows a part of the results.
Give one outcome, nothing more. List: yes for active, no for inactive

Some solved entries appear below for comparison.
* CCC(CC)C(=O)c1c[nH]c(C(=O)NCc2ccccn2)c1 | no
* O=C(N/N=C(\Cc1ncc[nH]1)c1ccccc1)c1cccnc1 | no
* Cc1[nH]n2c(=O)cc(C(C)(C)C)nc2c1-c1ccccc1 | yes
* Cc1cccc(/C=N/NC(=O)c2cccc(Cl)c2)n1 | no
* CCOC(=O)c1c(NC(=O)COC(=O)c2ccccc2NC)sc(C(=O)N(C)C)c1C | no

Inquiry: How did this test come out for O=C(N/N=C(\c1ccccc1)c1ccccn1)c1ccccc1Cl ?
Reply text: yes

Inquiry: Which outcome was entered for the compound O=C(NN=C(c1ccccc1)c1ccccn1)c1ccccc1 in this test?
Reply text: yes

Inquiry: Tell me the assay call for CCN1CCN(c2cc(C(C)C)nc3c(-c4ccccc4)c(C)nn23)CC1 please.
Reply text: no

Inquiry: Identify the outcome logged in this assay for the compound shown: Cc1[nH]n(-c2cccc3ccccc23)c(=O)c1/C=N/NC(=O)c1cccc([N+](=O)[O-])c1
Reply text: yes

Inquiry: Identify the outcome logged in this assay for the compound shown: CC(C)CC(NC(=O)c1ccc(Cl)cc1)C(=O)OCC(=O)c1ccc2c(c1)NC(=O)CO2 (stereo not given)
Reply text: yes
